system: MALME-3M melanoma; assay: NCI-60 one-dose screen, 48 h; details: 10 µM unless noted
Compounds without any hit were thinned out: in the full panel of roughly 83,000, 20% have a hit. Activity calls are given as the source filed them. The calls were made as follows: active = growth percent below 10; inactive = the rest.
// classify into active, inactive

Req: Dear colleague, could you share the recorded outcome for `COc1cc2nc(N3CCCC3)nc(NCC3CCCCC3)c2cc1OC` when you have a moment?
Resp: active

Req: Dear colleague, could you share the recorded outcome for `COc1cccc(-c2nc3sccn3c2-c2ccnc(NCCCNS(=O)(=O)c3cccc(Cl)c3)c2)c1` when you have a moment?
Resp: inactive

Req: Dear colleague, could you share the recorded outcome for `O=C1c2cccc3cccc(c23)C(=O)N1CCCCN1CCN(CCCCOc2ccc(-c3nc4ccc(N5CCOCC5)cc4[nH]3)cc2)CC1` when you have a moment?
Resp: inactive

Req: Dear colleague, could you share the recorded outcome for `N#Cc1nnn(-c2ccc(S(N)(=O)=O)cc2)c1NCC(=O)c1ccccc1` when you have a moment?
Resp: inactive

Req: Dear colleague, could you share the recorded outcome for `C#CCOc1ccc2ncnc(N3CCN(C(=O)CCl)CC3)c2c1` when you have a moment?
Resp: inactive

Req: Dear colleague, could you share the recorded outcome for `CN1CCN(CCCOc2cccc3nc(Nc4cc(Cl)cc(Cl)c4)ccc23)CC1` when you have a moment?
Resp: active

Req: Dear colleague, could you share the recorded outcome for `c1ccc(-c2c(-c3ccccc3)[n+](Cc3ccc4ccccc4c3)c(-c3ccc(-c4nc5ccccc5s4)cc3)n2Cc2ccc3ccccc3c2)cc1` when you have a moment?
Resp: active

Req: Dear colleague, could you share the recorded outcome for `CC(=O)O[C@H]1CC[C@]2(C)[C@H]3CC=C4[C@@H]5CC(C)(C)CC[C@]5(C(=O)NCCNCCNCCN)CC[C@@]4(C)[C@]3(C)CC[C@H]2C1(C)C` when you have a moment?
Resp: inactive

Req: Dear colleague, could you share the recorded outcome for `Oc1cccc(-c2nc(N3CCOCC3)c3c4c(sc3n2)CCCC4)c1` when you have a moment?
Resp: inactive

Req: Dear colleague, could you share the recorded outcome for `CCCc1cc(=O)n2c(C(=O)Nc3cccc(C(=O)OCC)c3)c(C(=O)Nc3ccc(F)cc3)sc2n1` when you have a moment?
Resp: inactive

Req: Dear colleague, could you share the recorded outcome for `O=S(=O)(Nc1ccc(I)cc1F)c1ccc(-c2cnc(C3CC3)o2)cc1` when you have a moment?
Resp: inactive

Req: Dear colleague, could you share the recorded outcome for `CC(=O)c1nc2ccccc2n1CC(=O)c1cccc(Cl)c1` when you have a moment?
Resp: inactive

Req: Dear colleague, could you share the recorded outcome for `COc1ccc(-n2nc(C)c3c(Nc4ccc(NC(=O)Nc5ccc(Cl)c(C(F)(F)F)c5)cc4)ncnc32)cc1` when you have a moment?
Resp: active

Req: Dear colleague, could you share the recorded outcome for `COc1cccc(-c2nc3sccn3c2-c2ccnc(NCCCNS(=O)(=O)c3c(Cl)cccc3Cl)c2)c1` when you have a moment?
Resp: inactive

Req: Dear colleague, could you share the recorded outcome for `COc1ccc(-c2cc(-c3ccc(Nc4ccnc5cc(Cl)ccc45)cc3)nc(N3CCOCC3)n2)cc1` when you have a moment?
Resp: active

Req: Dear colleague, could you share the recorded outcome for `CC/C=C\C[C@H]1C/C=C2/C(=O)C=C[C@H]2C/C=C\CCCC(=O)O1` when you have a moment?
Resp: inactive

Req: Dear colleague, could you share the recorded outcome for C/C1=C\CC[C@@]2(C)O[C@H]2[C@H]2OC(=O)C(CN3CCN(CC4C(=O)O[C@H]5[C@H]4CC/C(C)=C/CC[C@@]4(C)O[C@@H]54)CC3)[C@@H]2CC1 (stereo partly specified) when you have a moment?
Resp: inactive

Req: Dear colleague, could you share the recorded outcome for CCNc1ncnc2c1cnn2C1CCCO1 (stereo unspecified) when you have a moment?
Resp: inactive

Req: Dear colleague, could you share the recorded outcome for `COc1cc(/C=C/C(=O)c2cccnc2Nc2ccc(F)cc2)cc(OC)c1OC` when you have a moment?
Resp: inactive

Req: Dear colleague, could you share the recorded outcome for `OCc1ccc(N2CCc3cccc(F)c3C2)cc1Cl` when you have a moment?
Resp: inactive

Req: Dear colleague, could you share the recorded outcome for COc1ccc(SC2c3cc(OC)c(OC)cc3Oc3nc(N)c(C#N)c(N)c32)cc1 (stereo unspecified) when you have a moment?
Resp: active
